Where do these numbers come from? They come from patent US20240002542A1.

system_tested: T1, hGP130-his (Sino Biological, Catalog #10974) (human, UniProt P40189 23-619)
T1 construct: Bought his-tagged cytokine receptor used as SPR analyte; also called human gp130 receptor subunit; IL6 receptor beta subunit; not shown: his tag
T1 sequence: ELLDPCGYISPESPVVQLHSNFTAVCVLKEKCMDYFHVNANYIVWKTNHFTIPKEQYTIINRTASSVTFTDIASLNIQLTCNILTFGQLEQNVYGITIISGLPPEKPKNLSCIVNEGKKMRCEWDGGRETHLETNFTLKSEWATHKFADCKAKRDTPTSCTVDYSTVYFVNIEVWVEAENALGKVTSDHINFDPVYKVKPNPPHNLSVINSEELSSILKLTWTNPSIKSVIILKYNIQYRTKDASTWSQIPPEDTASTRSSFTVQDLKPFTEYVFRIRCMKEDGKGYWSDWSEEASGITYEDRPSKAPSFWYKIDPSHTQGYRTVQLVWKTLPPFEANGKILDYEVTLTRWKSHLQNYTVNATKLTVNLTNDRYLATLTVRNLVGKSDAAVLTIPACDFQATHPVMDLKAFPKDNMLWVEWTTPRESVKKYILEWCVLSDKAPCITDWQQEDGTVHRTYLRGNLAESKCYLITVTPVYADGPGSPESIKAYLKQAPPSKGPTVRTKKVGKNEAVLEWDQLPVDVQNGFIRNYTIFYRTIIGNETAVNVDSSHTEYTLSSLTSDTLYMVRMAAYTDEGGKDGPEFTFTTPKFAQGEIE
experiment_summary: SPR Biacore T200; ratio experimental/calculated Rmax
measured_property: Surface Activity (%)
Number only, in %; omit the unit.

Lab note: 14-DR591 (SEQ ID NO. 232), anti-hGP130 Mono-Fc VHH (Fc fusion, Tested as Mono-Fc VHH ligand captured on a Protein A chip; not shown: mono-Fc part) QVQLQESGGGSVQAGGSLRLSCTASGAIASGYIDSRWCMAWFRQAPGKEREGVAAIWPGGGLTVYADSVKGRFTISRDHAKNTLYLQMNNLKPEDTAMYYCAAGSPRMCPSLEFGFDYWGQGTQVTVSS gave Surface Activity of 21

Lab note: 18-DR595 (SEQ ID NO. 236), anti-hGP130 Mono-Fc VHH (Fc fusion, Mono-Fc VHH ligand captured on a Protein A chip; not shown: mono-Fc part) QVQLQESGGGSVQAGGSLTLSCAASEYAYSTCNMGWYRQAPGKERELVSAFISDGSTYYADSVKGRFTITRDNAKNTVYLQMNSLKPEDTAIYYCSANCYRRLRNYWGQGTQVTVSS gave Surface Activity of 33

Lab note: 16-DR593 (SEQ ID NO. 234), anti-hGP130 Mono-Fc VHH (Fc fusion, Mono-Fc VHH ligand captured on a Protein A chip; not shown: mono-Fc part) QVQLQESGGGSVQAGGSLRLSCAASGYPYSNGYMGWFRQAPGKEREGVATIYTGDGRTYYADSVKGRFTISRDNAKNTVDLQMSSLKPEDTAMYYCAARAAPLYSSGSPLTRARYNVWGQGTQVTVSS gave Surface Activity of 20

Lab note: 19-DR596 (SEQ ID NO. 237), anti-hGP130 Mono-Fc VHH (Fc fusion, Mono-Fc VHH ligand captured on a Protein A chip; not shown: mono-Fc part) QVQLQESGGGLVQPGGSLRLSCTASGLTFDDSVMGWFRQAPGKGREAVSCISSSGANAFYADSVKGRFTISRDNAKNTLYLQMNSLKPEDTATYYCKRGHACAGYYPIPYDDYWGQGTQVTVSS gave Surface Activity of 28

Lab note: 15-DR592 (SEQ ID NO. 233), anti-hGP130 Mono-Fc VHH (Fc fusion, Mono-Fc VHH ligand captured on a Protein A chip; not shown: mono-Fc part) QVQLQESGGGSVQAGGSLRLSCTAPGFTSNSCGMDWYRQAPGKEREFVSSISTDGTTGYADSVKGRFTISKDKAKDTVYLQMNSLKPEDTGMYSCKTKDGTIATMELCDFGYWGQGTQVTVSS gave Surface Activity of 33

Lab note: 17-DR594 (SEQ ID NO. 235), anti-hGP130 Mono-Fc VHH (Fc fusion, Mono-Fc VHH ligand captured on a Protein A chip; not shown: mono-Fc part) QVQLQESGGGSVQAGGSLRLSCVASASTYCTYDMHWYRQAPGKGREFVSAIDSDGTTRYADSVKGRFTISQGTAKNTVYLQMNSLQPEDTAMYYCKTVCVVGSRWSDYWGQGTQVTVSS gave Surface Activity of 21
